Biological target: T1, CRBN, Q96SW2;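 note: pooled lentiviral library of zinc finger degron-EGFP fusions in mCherry-positive Jurkat cells, FACS-sorted after compound exposure, with degron abundance counted by next-generation sequencing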
T1 chain: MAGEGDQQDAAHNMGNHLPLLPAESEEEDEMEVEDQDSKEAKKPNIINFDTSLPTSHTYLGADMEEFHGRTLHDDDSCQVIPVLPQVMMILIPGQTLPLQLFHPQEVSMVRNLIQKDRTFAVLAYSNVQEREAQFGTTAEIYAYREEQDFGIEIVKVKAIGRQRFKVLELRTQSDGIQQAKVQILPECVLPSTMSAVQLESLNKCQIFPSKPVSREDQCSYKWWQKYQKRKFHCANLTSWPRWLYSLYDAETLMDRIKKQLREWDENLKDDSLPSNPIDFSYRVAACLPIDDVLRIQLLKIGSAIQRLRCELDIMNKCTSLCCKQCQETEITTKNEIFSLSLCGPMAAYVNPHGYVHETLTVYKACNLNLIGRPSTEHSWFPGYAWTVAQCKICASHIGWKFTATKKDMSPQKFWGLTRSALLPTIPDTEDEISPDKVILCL
Assay: log2 fold change of degron read counts, EGFP-low vs EGFP+ sorted cells (limma voom), compound-induced degradation; higher = more compound-induced degradation of the degron-EGFP fusion; degrons are variants of IKZF1/3 zinc finger 2; compound dose not given here
Conditions: Jurkat; 18 h; compound: thalidomide
In all, about 8,300 sequences were measured (“log2 fold change of degron read counts, EGFP-low vs EGFP+ sorted cells (limma voom), compound-induced degradation”: median about -1.1, highest 2% from about 3.2 on). Many of the other results were omitted from the sample, so the highest values are more common in it than they were.
ASSAY_READOUT: log2 fold change of degron read counts
Give the value as a plain number.

Example results:
{"SEQ_STRING": "FKCNVCGAEFTQKGNLLRHIKL [46F_47K_49N_50V_52G_53A_54E_55F_67L_, Q9UKT9]", "log2 fold change of degron read counts": -2.1}
{"SEQ_STRING": "FHCPVCGAPFTQKGNLLRHIKL [46F_47H_49P_50V_52G_53A_54P_55F_67L_, Q9UKT9]", "log2 fold change of degron read counts": 1.82}
{"SEQ_STRING": "FQCEVCGAMFTQKGNLLRHIKL [46F_47Q_49E_50V_52G_53A_54M_55F_67L_, Q9UKT9]", "log2 fold change of degron read counts": 3.52}

Data request: Give the reported log2 fold change of degron read counts for this sequence. FHCPICGHSFTQKGNLLRHIKL [46F_47H_49P_50I_52G_53H_54S_55F_67L_, Q9UKT9]
Data returned: -2.32

Data request: In one line, give reported log2 fold change of degron read counts of the entry FNCPVCGAPFTQKGNLLRHIKL [46F_47N_49P_50V_52G_53A_54P_55F_67L_, Q9UKT9] .
Data returned: 2.25

Data request: State its log2 fold change of degron read counts for this sequence: FKCDVCGAVFTQKGNLLRHIKL [46F_47K_49D_50V_52G_53A_54V_55F_67L_, Q9UKT9]
Data returned: -2.43

Just for reference, the supplement of paper PMC12645437 is where these values come from.
